Tested on: OVCAR-3 ovarian
Test: NCI tumour cell line growth inhibition, 48 h
Property name: TGI (µM)
Give the value in µM but do not write µM after it.

Provide OVCAR-3 ovarian TGI reading for COCCOC1=C(Cl)C(=O)c2c(O)ccc(O)c2C1=O .
3.08

Look up and report TGI, with OVCAR-3 ovarian as system, for CCN1C(=O)N(CC)C2C1NN=c1s/c(=C\c3ccc(OC)cc3)c(=O)n12 (stereo unspecified)
0.526

Lab note: OVCAR-3 ovarian assay, enter TGI for COc1ccc(/C=C2/CN(CCC#N)C/C(=C\c3ccc(OC)cc3)C2=O)cc1 here
7.46

----------
Test system: XF 498 CNS
Assay: NCI tumour cell line growth inhibition, 48 h
For each record, write down the corresponding TGI.

Please indicate TGI recorded for O=C(NC(Cc1ccc(I)cc1)C(=O)O)c1ccc(Cl)cc1 (stereo not drawn)
> 100 µM

Report measured TGI; entry is O=C1CC[C@@H](NC(=O)Cc2ccccc2)C(=O)N1
> 100 µM

Dear colleague, please send me the reported TGI for Nc1ccc(C(=O)Nc2ccccc2N)cc1 when you can.
> 100 µM

Determine from records and report TGI for Cn1cnc([N+](=O)[O-])c1Sc1nc2ccc([N+](=O)[O-])cc2[nH]1
28.9 µM

# return recorded TGI for input COC(=O)C(Cc1nc2ccccc2[nH]c1=O)C(=O)C(=O)Nc1ccc(F)cc1 (stereo not drawn)
> 100 µM

# return recorded TGI for input Nc1nc2ncn(CC(O)COC(=O)c3ccccc3)c2c(=O)[nH]1 (stereo not drawn)
> 100 µM

Give recorded TGI. CCCCCCCCCCCC(=O)OC(COC(N)=O)COc1ccc(Cl)cc1 (stereo not drawn)
45.8 µM

Fill in TGI for record CS(=O)(=O)OCCN(CCOS(C)(=O)=O)c1ccc(/C=N/Nc2ncnc3nc[nH]c23)cc1
38.8 µM

Tell me its TGI given CCSc1nnc(-c2ccccc2)nc1Cc1ccc(OC)cc1 as the entry.
> 100 µM

Return TGI for the following compound: CCCCC(C(=O)CCC(=O)Nc1ccc(Cl)cc1)C(=O)C(C)C (stereo not drawn)
> 100 µM

Look up and state reported TGI for CC1CC(c2ccc(Cl)c(Cl)c2)=Nc2ccccc2S1 (stereo not drawn)
> 100 µM

Given the compound NCC1(N2CCOCC2)C2CCCC21CNc1ccccc1 (stereo not drawn) , write its reported TGI.
> 100 µM

Give the value of TGI reported for the following: O=C(NC1C(=O)NNC1c1ccccc1Cl)c1ccccc1 (stereo not drawn)
> 100 µM

----------
Assignment: determine reported TGI for the given molecules.
Test system: OVCAR-4 ovarian
Assay: NCI tumour cell line growth inhibition, 48 h
Give your result in µM as a bare value.

Fill in TGI for record CCOC(=O)C(NC(=O)c1cccc(Cl)c1)(N1CCN(c2cc3c(cc2F)c(=O)c(C(=O)O)cn3C2CC2)CC1)C(F)(F)F (centres undefined)
39

Identify TGI associated with the molecule O=C(c1ccco1)c1c(C(F)(F)F)n([O-])c2ccc(F)cc2[n+]1=O
2.64

Note TGI for the molecule shown: O=C(O)COc1ccc(C(=O)/C(SS/C(C(=O)c2ccc(OCC(=O)O)c(Cl)c2Cl)=C2\C=C(c3ccccc3Cl)SS2)=C2/C=C(c3ccccc3Cl)SS2)c(Cl)c1Cl
57.1

# return recorded TGI for input OCc1ccc(N(Cc2ccc(F)cc2)CC2CCC2)cc1Cl
14.6
